# Target Entity: furin, P09958;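 also: purified furin at 1:10 enzyme:substrate in 50 mM HEPES pH 7.5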
# Sequence (P09958 whole entry): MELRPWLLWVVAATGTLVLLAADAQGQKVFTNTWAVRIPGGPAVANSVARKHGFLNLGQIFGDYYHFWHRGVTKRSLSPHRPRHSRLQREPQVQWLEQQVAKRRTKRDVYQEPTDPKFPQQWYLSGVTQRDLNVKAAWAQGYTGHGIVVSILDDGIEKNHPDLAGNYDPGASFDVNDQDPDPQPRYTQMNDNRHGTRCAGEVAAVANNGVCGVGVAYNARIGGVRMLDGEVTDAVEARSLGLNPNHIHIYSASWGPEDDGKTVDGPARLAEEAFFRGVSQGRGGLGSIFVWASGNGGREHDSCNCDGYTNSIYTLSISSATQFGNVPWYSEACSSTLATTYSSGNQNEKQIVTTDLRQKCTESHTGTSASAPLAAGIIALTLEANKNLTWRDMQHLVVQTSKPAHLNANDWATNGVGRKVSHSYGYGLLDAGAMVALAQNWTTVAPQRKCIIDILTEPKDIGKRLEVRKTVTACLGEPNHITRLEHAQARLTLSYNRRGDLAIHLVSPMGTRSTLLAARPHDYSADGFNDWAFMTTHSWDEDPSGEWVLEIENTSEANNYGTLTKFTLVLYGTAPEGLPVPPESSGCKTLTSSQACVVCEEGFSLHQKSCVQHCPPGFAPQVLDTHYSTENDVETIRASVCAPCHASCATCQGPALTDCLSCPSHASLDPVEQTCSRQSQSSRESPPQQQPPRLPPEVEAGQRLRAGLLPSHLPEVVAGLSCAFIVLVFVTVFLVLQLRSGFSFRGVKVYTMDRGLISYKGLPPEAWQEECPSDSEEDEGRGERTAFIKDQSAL
# Assay Text: furin cleavage Z-score vs untreated control; higher = more cleavage, active = 3.5 or more, inactive = 1 or less, 8 variable residues between constant flanks
# Test Parameters: 30 min
Some of the results follow. How many sequences the whole screen found active is unknown.
Here the recorded furin cleavage Z-score is given for each entry.
Readout: furin cleavage Z-score

Query Sequence	Number
CAGLKRSVSRAGNASASA [FS-2477]	0.712
CACNHRNRRRAGNASASA [FS-1624]	6.25
CARRKRYRNFAGNASASA [FS-1836]	2.95
CACSRRKPRDAGNASASA [FS-752]	9.05
CAEVVFSTWVAGNASASA [HC126]	-0.791
CADSLNTGWLAGNASASA [HC376]	-1.36
CAKAKRSVPPAGNASASA [FS-2540]	7.46
CALRKLGVPPAGNASASA [HC1615]	0.629
CAWCLWWLQYAGNASASA [HC581]	-0.828
CAECVTSTWVAGNASASA [HC2180]	0.32
CAMEECNQHLAGNASASA [HC38]	0.708
CATVPCHRPSAGNASASA [HC2318]	0.585
CAFGRRLRRRAGNASASA [FS-1124]	4.4
CAEKSRAKRQAGNASASA [FS-231]	6.51
CAAGIAYFSMAGNASASA [HC339]	-0.966
CACFAWYLKGAGNASASA [HC547]	0.991
CAPPGRMCRVAGNASASA [FS-1549]	1.21
CAEILLGPADAGNASASA [HC665]	0.764
CAEKEVPCHRAGNASASA [HC2454]	1.43
CAEVPCHRLSAGNASASA [HC2385]	2.67
CATIPCSGSWAGNASASA [HC1844]	-0.285
CAIGSVGLGKAGNASASA [HC1080]	-0.856
CARRKRSRKPAGNASASA [FS-1835]	6.82
CAVFCCSMSYAGNASASA [HC2007]	-0.762
CAPKRRKPRVAGNASASA [FS-1242]	8
CAREDRFFCPAGNASASA [FS-2001]	-0.529
CASTMCSAHLAGNASASA [HC2506]	2.15
CAQKGRKPRDAGNASASA [FS-1056]	10.2
CAQPSSSRRDAGNASASA [FS-1251]	-1.19
CAKKSRLRRRAGNASASA [FS-1131]	0.0179
